# study.target: T1, biotinylated recombinant human trimeric ARG2 enzyme (Avi-huARG2-His10) (human, UniProt P78540 23-354, biotinylated)
# T1 construct: also called avi-Arg2-His10; bio-ARG2
# T1 chain: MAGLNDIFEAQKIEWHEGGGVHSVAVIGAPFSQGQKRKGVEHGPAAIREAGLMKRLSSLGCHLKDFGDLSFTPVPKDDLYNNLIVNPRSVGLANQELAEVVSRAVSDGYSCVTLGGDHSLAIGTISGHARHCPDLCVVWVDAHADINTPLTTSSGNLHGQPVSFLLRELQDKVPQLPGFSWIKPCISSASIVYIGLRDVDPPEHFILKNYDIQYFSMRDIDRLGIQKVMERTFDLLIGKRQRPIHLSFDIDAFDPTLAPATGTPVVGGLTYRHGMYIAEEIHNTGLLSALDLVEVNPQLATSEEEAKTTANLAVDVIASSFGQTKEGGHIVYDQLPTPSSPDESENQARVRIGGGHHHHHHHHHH
# assay.text: HTRF epitope competition, scFv titrated, competitor C0020187 IgG, on biotinylated human trimeric ARG2
experimental.endpoint: pIC50
A value of pIC50 is the negative decimal logarithm of a concentration given in moles per litre.

Look over these answered cases.
| binder | pIC50 |
| --- | --- |
| C0021101 scFv (scFv, V domains shown, scFv) VH: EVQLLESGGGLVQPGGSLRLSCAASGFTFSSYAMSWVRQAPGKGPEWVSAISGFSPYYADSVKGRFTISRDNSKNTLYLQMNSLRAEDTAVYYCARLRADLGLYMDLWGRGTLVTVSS VL: QSVLTQPPSVSAAPGQKVTISCSGSSSNIGNHYVSWYQQLPGTAPKLLIYNNRSPTSGIPDRFSGSKSGTSATLGITGLQTGDEADYYCGTWDSSLSALVFGGGTKLTVL | 7.39 |
| C0021097 scFv (scFv, V domains shown, scFv) VH: EVQLLESGGGLVQPGGSLRLSCAASGFTFSSYAMSWVRQAPGKGLEWVSAISYHPGSTYYADSVKGRFTISRDNSKNTLYLQMNSLRAEDTAVYYCARLRADLGLYMDLWGRGTLVTVSS VL: QSVLTQPPSVSAAPGQKVTISCSGSSSNIGNHYVSWYQQLPGTAPKLLIYNTFARPSGIPDRFSGSKSGTSATLGITGLQTGDEADYYCGTWDSSLSALVFGGGTKLTVL | 7.56 |
| C0021135 scFv (scFv, V domains shown, scFv) VH: EVQLLESGGGLVQPGGSLRLSCAASGFAFRYEYIQWVRQAPGKGLEWVSAISGSGGSTYYADSVKGRFTISRDNSKNTLYLQMNSLRAEDTAVYYCARLRADLGLYMDLWGRGTLVTVSS VL: QSVLTQPPSVSAAPGQKVTISCSGSSSNIGNHYVSWYQQLPGTAHKLLIYDNSERPSGIPDRFSGSKSGTSATLGITGLQTGDEADYYCGTWDSSLSALVFGGGTKLTVL | 7.28 |
| C0021118 scFv (scFv, V domains shown, scFv) VH: EVQLLESGGGLVQPGGSLRLSCAASGFTFSSYAMSWVRQAPGKGLEWVSASLTNPGSTYYADSVKGRFTISRDNSKNTLYLQMNSLRAEDTAVYYCARLRADLGLYMDLWGRGTLVTVSS VL: QSVLTQPPSVSAAPGQKVTISCSGSSSNIGNHYVSWYQQLPGTAPKLLIYDNSERPSGIPDRFSGSKSGTSATLGITGLQTGDEADYYCATYDTNLSALVFGGGTKLTVL | 7.38 |
| C0021124 scFv (scFv, V domains shown, scFv) VH: EVQLLESGGGLVQPGGSLRLSCAASGFTFSSYAMSWVRQAPGKGLEWVSAISYHPGSTYYADSVKGRFTISRDNSKNTLYLQINSLRAEDTAVYYCARLRADLGLYMDLWGRGTLVTVSS VL: QSVLTQLPSVSAAPGQKVTISCSGSSSNIGNHYVSWYQQLPGTAPKLLIYDNSERPSGIPDRFSGSKSGTSATLGITGLQTGDEADYYCGTWDSDRVNLEFGGGTKLTVL | 7.30 |
| C0021139 scFv (scFv, V domains shown, scFv) VH: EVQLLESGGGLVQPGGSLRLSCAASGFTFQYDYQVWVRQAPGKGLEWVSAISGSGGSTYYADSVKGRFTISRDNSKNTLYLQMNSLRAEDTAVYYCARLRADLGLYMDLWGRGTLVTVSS VL: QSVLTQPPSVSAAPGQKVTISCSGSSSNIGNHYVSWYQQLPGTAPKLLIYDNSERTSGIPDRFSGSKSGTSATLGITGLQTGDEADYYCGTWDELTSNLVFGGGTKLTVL | 7.40 |

Prompt: Which pIC50 is listed for C0021129 scFv (scFv, V domains shown, scFv) VH: EVQLLESGGGLVRPGGSLRLSCAASGFTFSSYAMSWVRQAPGKGLEWVSAISGFSPFYADSVKGRFTISRDNSKNTLYLQMNSLRAEDTAVYYCARLRADLGLYMDLWGRGTLVTVSS VL: QSVLTQPPSVSAAPGQKVTISCSGSSSNIGNHYVSWYQQLPGTAPKLLIYDNSERPSGIPDRFSGSKSGTSATLDITGLQTGDEADYYCGTWDETAAELVFGGGTKLTVL ?
Response: 7.35

Prompt: Now this one: C0021089 scFv (scFv, V domains shown, scFv) VH: EVQLLESGGGLVQPGGSLRLSCAASGFTFPYEYWSWVRQAPGKGLEWVSAISGSGGSTYYADSVKGRFTISRDNSKNTLYLQMNSLRAQDTAVYYCARLRADLGLYMDLWGRGTLVTVSS VL: QSVLTQPPSVSAAPGQKVTISCSGSSSNIGNHYVSWYQQLPGTAPKLLIYDNSERPSGIPDRFSGSKSGTSATLGITGLQTGDEADYYCGTWDPTVSRLVFGGGTKLTVL
Response: 6.88

Prompt: Please do the same for C0021092 scFv (scFv, V domains shown, scFv) VH: EVQLLESGGGLVQPGGSLRLSCAASGFTFSRYAMSWVRQAPGKGLEWVSAHTHSPGSTYYADSVKGRFTISRDNSKNTLYLQMNSLRAEDTAVYYCARLRADLGLYMDLWGRGTLVTVSS VL: QSVLTQPPSVSAAPGQKVTISCSGSSSNIGNHYVSWYQQLPGTAPKLLIYNSVARPSGIPDRFSGSKSGTSATLGITGLQTGDEADYYCGTWDSSLSALVFGGGTKLTVL as well.
Response: 6.89
